FYI, the data here is from ChEMBL document CHEMBL4002615.

# experiment_description: Unbound fraction in dog at 0.5 mg/kg, iv or 2 mg/kg, po
# Type: ADME, organism-based, Canis lupus familiaris
# condition_set: in vivo
Below: a set of entries, each annotated with reported fraction unbound.
# print the numeric value only

The examples below pair each entry with its known result.
O=C(c1ccc(C[C@@H]2CC[C@H]([C@H](O)c3ccccc3)N2)cc1)N1CCN(Cc2nnn(CC(F)F)n2)CC1	0.65
O=C(c1ccc(C[C@@H]2CC[C@H]([C@H](O)c3ccccc3)N2)cc1)N1CCN(Cc2ccccn2)CC1	0.48

Task: Record request: fraction unbound value, item "O=C(c1ccc(C[C@@H]2CC[C@H]([C@H](O)c3ccccc3)N2)cc1)N1CCN(Cc2nnn(CC(F)(F)F)n2)CC1"
Output: 0.63
